# Tested on: MDA-N
# experimentDescription: NCI tumour cell line growth inhibition, 48 h
recordedMetric: TGI (µM)
Response body: numeric value in µM, unit text excluded.

compound	targetOrTestSystem	TGI (µM)
CC[C@@H]1CN2CCC1C[C@@H]2C(O)c1ccnc2ccc(OCCN3CCN(CCOc4ccc5nccc(C(O)[C@@H]6C[C@@H]7CCN6C[C@@H]7CC)c5c4)CC3)cc12 (some centres not stated)	MDA-N	27.1
OC1c2ccccc2[C@@H]2[C@H]1[C@@H](c1ccccc1)C1(Cc3ccccc3C1O)[C@H]2c1ccccc1 (some centres not stated)	MDA-N	13.7
COc1cc(O)c(C(=O)/C=C/c2ccccc2)c(OC)c1	MDA-N	14.7
O=C1C2CC(Cl)C(SSC3CC4C(=O)N(SC(Cl)(Cl)C(Cl)Cl)C(=O)C4CC3Cl)CC2C(=O)N1SC(Cl)(Cl)C(Cl)Cl (configuration not stated)	MDA-N	6.71

As a next step, examine the compound that follows.
q: GET /values?readout=TGI&item= CN(C)CCOc1ccc(I)cc1Cc1ccccc1
a: 17.4

* * *

Some compounds, each annotated with its measured TGI.
# Test system: KM12 colon
# experimentDescription: NCI tumour cell line growth inhibition, 48 h

Recorded results for 3 compounds are shown here.
compound	TGI
O=S(=O)(c1ccc(NC(=S)N/N=C/c2ccccc2O)cc1)N1CCCCC1	12.9 µM
COc1ccc(/C=C2/CCCC/C2=N/O)cc1	> 100 µM
CN(C)CCOc1ccc(I)cc1Cc1ccccc1	27 µM

q: GET /values?readout=TGI&item= C[C@@H](c1ccc2nccn2c1)n1nnc2ncc(-c3cnn(C)c3)nc21
a: > 100 µM

q: // next record COc1c(OC(C)=O)ccc(/C=C2\N=C(C)OC2=O)c1[N+](=O)[O-]
a: > 100 µM

q: // next record CC(C)=CC(=O)CC(=O)C(=O)Nc1ccc(C)c(C)c1
a: > 100 µM

q: // next record COC(=O)[C@]12CC[C@@H](C)[C@H](C)[C@@H]1C1=CC[C@@H]3[C@@]4(C)CC(=O)[C@H](O)[C@@]5(C)COC(=C45)C[C@@]3(C)[C@]1(C)CC2
a: 33.8 µM

q: // next record O=C1c2ccccc2-c2c1c1ccccc1c(=O)n2CCO
a: > 100 µM

q: // next record S=C(NNC1=NCCCN1)Nc1ccccc1
a: > 100 µM

q: // next record CC(O)c1c2c(cc3c1CC1(C3)Cc3cc4c(c(C(C)O)c3C1)CCC4)CCC2 (configuration not stated)
a: 38.4 µM

q: // next record CC1=COC(=O)c2ccccc2N1
a: > 100 µM

q: // next record Nc1ccn(C=C=CCO)c(=O)n1
a: > 1000 µM

q: // next record COc1cc2c(cc1OC)C1Cc3ccccc3CCN1CC2 (configuration not stated)
a: > 100 µM

q: // next record COc1ccc(-c2oc3cc(O)c(OC)c(O)c3c(=O)c2OC2OC(CO)C(O)C(O)C2O)cc1 (configuration not stated)
a: > 100 µM

q: // next record Cc1ccc(S(=O)(=O)NC(=O)NC(CO)C(=O)O)cc1 (configuration not stated)
a: > 100 µM

q: // next record O=[N+]([O-])c1ccc(Cl)cc1-n1nc(-c2ccccc2)cc1-c1ccccc1
a: > 100 µM

q: // next record Cc1cc(Br)cc(C)c1NC(=O)C(=O)CC(=O)c1sc(-n2nc(-c3ccccc3)cc2-c2ccccc2)nc1C
a: > 100 µM

q: // next record C=C(c1ccccc1N)[C@@]1(O)C[C@H](/C(=C\C)CO)C[C@@H]1NCc1ccccc1
a: 33.7 µM

q: // next record CCOc1cc(/C=N\N(C)C)cc(/C=N\N(C)C)c1O
a: > 100 µM
